Biological target: maytansine site of tubulin (Bos taurus)
Construct: Purified calf brain tubulin and chemicals were obtained as previously described; from tissue; host or cells: calf brain
Sequence (Q6B856 whole entry): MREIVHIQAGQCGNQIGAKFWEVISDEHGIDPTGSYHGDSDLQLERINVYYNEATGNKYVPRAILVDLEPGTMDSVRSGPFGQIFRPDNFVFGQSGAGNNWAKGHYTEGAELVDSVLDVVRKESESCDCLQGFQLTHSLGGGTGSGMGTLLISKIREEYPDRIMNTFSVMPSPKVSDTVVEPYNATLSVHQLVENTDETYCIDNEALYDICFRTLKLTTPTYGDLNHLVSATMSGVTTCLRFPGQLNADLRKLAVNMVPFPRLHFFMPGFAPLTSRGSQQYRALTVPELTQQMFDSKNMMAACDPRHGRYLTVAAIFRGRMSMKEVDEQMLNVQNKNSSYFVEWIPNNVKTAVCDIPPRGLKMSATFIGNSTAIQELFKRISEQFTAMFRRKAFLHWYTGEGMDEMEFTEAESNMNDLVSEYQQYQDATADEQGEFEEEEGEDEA
Sequence (P81947 whole entry partner): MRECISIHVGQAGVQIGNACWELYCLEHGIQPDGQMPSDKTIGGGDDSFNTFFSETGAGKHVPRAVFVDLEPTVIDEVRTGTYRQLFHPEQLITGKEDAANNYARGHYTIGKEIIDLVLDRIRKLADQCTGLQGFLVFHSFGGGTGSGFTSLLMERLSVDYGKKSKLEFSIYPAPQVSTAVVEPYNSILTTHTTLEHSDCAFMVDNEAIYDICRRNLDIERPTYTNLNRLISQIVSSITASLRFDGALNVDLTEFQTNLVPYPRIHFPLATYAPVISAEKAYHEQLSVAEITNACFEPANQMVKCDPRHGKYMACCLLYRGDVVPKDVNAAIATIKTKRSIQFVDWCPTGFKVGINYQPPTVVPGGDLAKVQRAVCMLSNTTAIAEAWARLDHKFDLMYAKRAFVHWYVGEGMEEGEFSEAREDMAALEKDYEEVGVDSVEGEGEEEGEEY
Assay: biochemical
Type: binding, calf
Settings: competition against Fc maytansine
test_readout: Mean K b

compound	test_readout	observed_measurement
COc1cc2cc(c1Cl)N(C)C(=O)CC(OC(=O)c1ccccc1)C1(C)OC1C(C)C1C=C(C(OC)C=CC=C(C)C2)N(C(=O)c2ccccc2)C(=O)O1 (stereo not drawn)	Mean K b	5.0±0.5×10^5 M^−1
COc1cc2cc(c1Cl)N(C)C(=O)CC(O)C1(C)OC1C(C)C1CC(O)(NC(=O)O1)C(OC)/C=C/C=C(\C)C2 (stereo not drawn)	Mean K b	1.30±0.06×10^6 M^−1

// next item, Mean K b requested
Ask: Read off the recorded Mean K b for `COc1cc2cc(c1Cl)N(C)C(=O)C[C@H](OC(=O)c1ccccc1)[C@]1(C)O[C@H]1[C@H](C)[C@@H]1C[C@@](O)(NC(=O)O1)[C@H](OC)/C=C/C=C(\C)C2`
Result: 2.0±0.×10^7 M^−1

Every entry's value here was drawn from paper PMC9299702.
